Quick list: Kb per entry.
tested_on: Alpha-1D adrenergic receptor (Rattus norvegicus, UniProt P23944)
Sequence (P23944 whole entry): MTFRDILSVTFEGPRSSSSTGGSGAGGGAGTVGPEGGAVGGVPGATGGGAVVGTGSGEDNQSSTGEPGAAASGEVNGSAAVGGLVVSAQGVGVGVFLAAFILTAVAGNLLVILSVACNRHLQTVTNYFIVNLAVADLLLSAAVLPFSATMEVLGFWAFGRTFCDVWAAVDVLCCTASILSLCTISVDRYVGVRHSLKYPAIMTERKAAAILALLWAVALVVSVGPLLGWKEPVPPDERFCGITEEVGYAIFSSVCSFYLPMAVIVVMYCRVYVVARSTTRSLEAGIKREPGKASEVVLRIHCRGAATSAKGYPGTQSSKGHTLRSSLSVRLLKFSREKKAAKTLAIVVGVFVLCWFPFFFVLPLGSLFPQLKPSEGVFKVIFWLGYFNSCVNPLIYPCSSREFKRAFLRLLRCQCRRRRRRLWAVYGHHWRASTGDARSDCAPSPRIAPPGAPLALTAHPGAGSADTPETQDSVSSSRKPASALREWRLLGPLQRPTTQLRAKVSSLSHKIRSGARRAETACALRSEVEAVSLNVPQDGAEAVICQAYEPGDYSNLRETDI
experiment_description: Blocking activity was assessed by antagonism of (-)-noradrenaline induced contraction of rat thoracic aorta (Alpha-1D adrenoceptor)
Assay type: functional, tissue-based
condition_context: read-out: pA2 (converted)

{"compound": "COc1cc2nc(N3CCN(C(=O)CCCCC4CCSS4)CC3)nc(N)c2cc1OC (stereo not given)", "unit_descriptor": "nM", "qualifier_operator": "=", "Kb": 12}
{"compound": "COc1cc2nc(N3CCN(C(=O)CC4CCSS4)CC3)nc(N)c2cc1OC (stereo not given)", "unit_descriptor": "nM", "qualifier_operator": "=", "Kb": 0.912}
{"compound": "O=C(O)CCCCC1CCSS1 (stereo not drawn) [LIPOIC ACID, ALPHA]", "unit_descriptor": "nM", "qualifier_operator": ">", "Kb": 10000}
{"compound": "COc1cc2nc(N3CCN(C(=O)C4CCSS4)CC3)nc(N)c2cc1OC (stereo not given)", "unit_descriptor": "nM", "qualifier_operator": "=", "Kb": 0.871}
{"compound": "COc1cc2nc(N3CCN(C4=CC(=O)c5ccccc5C4=O)CC3)nc(N)c2cc1OC", "unit_descriptor": "nM", "qualifier_operator": "=", "Kb": 0.891}

---

Protein target, amino acids: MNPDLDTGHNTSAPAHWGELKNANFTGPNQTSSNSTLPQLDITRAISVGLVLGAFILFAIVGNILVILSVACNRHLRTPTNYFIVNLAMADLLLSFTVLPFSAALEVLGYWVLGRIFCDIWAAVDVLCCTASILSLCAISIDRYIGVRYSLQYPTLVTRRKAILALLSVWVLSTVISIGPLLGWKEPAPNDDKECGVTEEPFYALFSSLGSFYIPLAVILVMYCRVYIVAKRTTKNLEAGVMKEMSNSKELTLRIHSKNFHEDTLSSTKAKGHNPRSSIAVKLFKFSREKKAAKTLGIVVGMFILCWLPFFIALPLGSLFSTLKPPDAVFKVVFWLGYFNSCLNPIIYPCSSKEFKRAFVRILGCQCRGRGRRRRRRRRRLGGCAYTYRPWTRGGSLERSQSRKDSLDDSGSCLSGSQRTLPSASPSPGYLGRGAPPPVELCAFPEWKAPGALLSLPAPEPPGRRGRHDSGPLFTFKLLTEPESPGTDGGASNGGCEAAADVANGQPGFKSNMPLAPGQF

{"compound": "COc1cc2nc(N3CCN(C(=O)CCCCC4CCSS4)CC3)nc(N)c2cc1OC (stereo unspecified)", "Ki (nM)": 1.26}

---

tested_on: Alpha-1A adrenergic receptor (Homo sapiens, UniProt P35348)
Sequence (P35348 whole entry): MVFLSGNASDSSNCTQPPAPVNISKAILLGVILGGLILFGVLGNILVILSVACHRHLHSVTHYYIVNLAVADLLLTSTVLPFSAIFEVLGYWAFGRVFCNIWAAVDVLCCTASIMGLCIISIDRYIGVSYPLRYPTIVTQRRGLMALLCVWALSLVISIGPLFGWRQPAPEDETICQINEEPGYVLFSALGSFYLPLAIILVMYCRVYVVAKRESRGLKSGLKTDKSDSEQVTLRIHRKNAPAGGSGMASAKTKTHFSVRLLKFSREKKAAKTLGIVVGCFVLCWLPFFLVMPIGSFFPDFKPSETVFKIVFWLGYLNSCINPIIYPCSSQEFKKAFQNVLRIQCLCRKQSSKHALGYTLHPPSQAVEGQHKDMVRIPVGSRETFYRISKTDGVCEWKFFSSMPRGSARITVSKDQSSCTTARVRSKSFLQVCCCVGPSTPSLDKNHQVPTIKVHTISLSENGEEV
pKi: −log10 of the molar value.
measurement_name: pKi

{"mol_smiles": "COc1cc2nc(N3CCN(C4=CC(=O)c5ccccc5C4=O)CC3)nc(N)c2cc1OC", "measured_result": 8.90}

---

tested_on: UniProt:P43140
Sequence (P43140 whole entry): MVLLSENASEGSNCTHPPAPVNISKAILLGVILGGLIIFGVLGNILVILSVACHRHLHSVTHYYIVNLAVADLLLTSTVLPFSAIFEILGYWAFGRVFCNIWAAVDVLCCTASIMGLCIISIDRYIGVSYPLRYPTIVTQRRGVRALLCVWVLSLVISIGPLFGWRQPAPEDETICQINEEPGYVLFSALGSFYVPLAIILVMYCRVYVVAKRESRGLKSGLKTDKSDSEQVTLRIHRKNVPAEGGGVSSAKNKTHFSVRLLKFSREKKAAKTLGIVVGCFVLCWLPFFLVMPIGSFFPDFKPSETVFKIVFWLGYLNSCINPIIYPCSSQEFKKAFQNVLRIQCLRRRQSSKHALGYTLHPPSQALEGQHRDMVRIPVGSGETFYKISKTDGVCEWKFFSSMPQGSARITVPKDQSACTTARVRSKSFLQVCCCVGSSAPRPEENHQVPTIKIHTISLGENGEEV
experiment_description: Blocking activity was assessed by antagonism of (-)-noradrenaline induced contraction of rat prostatic vas deferens (alpha1A adrenoceptor)
Type: functional, tissue-based
condition_context: read-out: pA2 (converted)

{"compound": "COc1cc2nc(N3CCN(C(=O)C4CCSS4)CC3)nc(N)c2cc1OC (stereo not given)", "unit_descriptor": "nM", "qualifier_operator": "=", "Kb": 18.6}
{"compound": "COc1cc2nc(N3CCN(C4=CC(=O)c5ccccc5C4=O)CC3)nc(N)c2cc1OC", "unit_descriptor": "nM", "qualifier_operator": "=", "Kb": 22.9}
{"compound": "COc1cc2nc(N3CCN(C(=O)CCCCC4CCSS4)CC3)nc(N)c2cc1OC (stereo not given)", "unit_descriptor": "nM", "qualifier_operator": "=", "Kb": 64.6}
{"compound": "COc1cc2nc(N3CCN(C(=O)CC4CCSS4)CC3)nc(N)c2cc1OC (stereo not given)", "unit_descriptor": "nM", "qualifier_operator": "=", "Kb": 1}
{"compound": "O=C(O)CCCCC1CCSS1 (stereo not given)", "unit_descriptor": "nM", "qualifier_operator": ">", "Kb": 10000}

---

tested_on: Alpha-1B adrenergic receptor (Rattus norvegicus)
Sequence (P15823 whole entry): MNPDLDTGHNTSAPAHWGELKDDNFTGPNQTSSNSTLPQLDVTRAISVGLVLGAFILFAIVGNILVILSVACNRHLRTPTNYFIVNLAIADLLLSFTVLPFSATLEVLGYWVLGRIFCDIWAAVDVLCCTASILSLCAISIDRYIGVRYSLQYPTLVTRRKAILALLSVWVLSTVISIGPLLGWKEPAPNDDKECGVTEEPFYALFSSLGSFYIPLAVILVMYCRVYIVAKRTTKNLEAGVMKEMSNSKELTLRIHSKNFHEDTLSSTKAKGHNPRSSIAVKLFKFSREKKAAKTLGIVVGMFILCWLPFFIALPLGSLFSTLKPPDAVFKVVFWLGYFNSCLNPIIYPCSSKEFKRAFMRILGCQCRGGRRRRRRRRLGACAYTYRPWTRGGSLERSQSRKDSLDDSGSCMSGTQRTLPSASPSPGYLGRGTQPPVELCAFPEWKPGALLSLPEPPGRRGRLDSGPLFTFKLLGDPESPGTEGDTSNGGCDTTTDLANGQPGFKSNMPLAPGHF
experiment_description: Blocking activity was assessed by antagonism of (-)-phenylephrine induced contraction of rat spleen (alpha1B adrenoceptor)
Type: functional, tissue-based
condition_context: read-out: pA2 (converted)
Examples of compounds with documented Kb follow.

{"compound": "COc1cc2nc(N3CCN(C(=O)CC4CCSS4)CC3)nc(N)c2cc1OC (stereo not given)", "qualifier_operator": "=", "Kb, nM": 1.02}
{"compound": "COc1cc2nc(N3CCN(C(=O)C4CCSS4)CC3)nc(N)c2cc1OC (stereo not given)", "qualifier_operator": "=", "Kb, nM": 1.74}
{"compound": "COc1cc2nc(N3CCN(C(=O)CCCCC4CCSS4)CC3)nc(N)c2cc1OC (stereo not given)", "qualifier_operator": "=", "Kb, nM": 40.7}
{"compound": "COc1cc2nc(N3CCN(C4=CC(=O)c5ccccc5C4=O)CC3)nc(N)c2cc1OC", "qualifier_operator": "=", "Kb, nM": 3.09}
{"compound": "O=C(O)CCCCC1CCSS1 (stereo not given)", "qualifier_operator": ">", "Kb, nM": 10000}

---

tested_on: Alpha-1D adrenergic receptor (Homo sapiens, UniProt P25100)
Sequence (P25100 whole entry): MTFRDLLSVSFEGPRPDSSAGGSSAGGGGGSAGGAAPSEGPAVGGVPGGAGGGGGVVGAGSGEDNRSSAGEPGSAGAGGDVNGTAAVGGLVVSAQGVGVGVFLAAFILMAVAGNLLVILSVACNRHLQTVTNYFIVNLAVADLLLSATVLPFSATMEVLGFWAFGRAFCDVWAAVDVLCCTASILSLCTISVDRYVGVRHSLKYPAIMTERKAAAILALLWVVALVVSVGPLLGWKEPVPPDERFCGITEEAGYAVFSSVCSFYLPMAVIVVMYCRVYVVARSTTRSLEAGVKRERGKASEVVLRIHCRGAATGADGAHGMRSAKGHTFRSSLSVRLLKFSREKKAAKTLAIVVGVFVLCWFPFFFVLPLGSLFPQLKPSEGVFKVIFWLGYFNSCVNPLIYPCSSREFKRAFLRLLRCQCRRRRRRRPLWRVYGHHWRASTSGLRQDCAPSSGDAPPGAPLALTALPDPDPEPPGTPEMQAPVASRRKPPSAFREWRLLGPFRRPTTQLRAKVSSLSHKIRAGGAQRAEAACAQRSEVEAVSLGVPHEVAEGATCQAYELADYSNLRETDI
pKi: −log10 of the molar value.

{"mol_smiles": "COc1cc2nc(N3CCN(C4=CC(=O)c5ccccc5C4=O)CC3)nc(N)c2cc1OC", "pKi": 9.03}
